Biological target: human TRPV1 (Homo sapiens)
Construct: expressed in transfected cells
Sequence (Q8NER1 whole entry): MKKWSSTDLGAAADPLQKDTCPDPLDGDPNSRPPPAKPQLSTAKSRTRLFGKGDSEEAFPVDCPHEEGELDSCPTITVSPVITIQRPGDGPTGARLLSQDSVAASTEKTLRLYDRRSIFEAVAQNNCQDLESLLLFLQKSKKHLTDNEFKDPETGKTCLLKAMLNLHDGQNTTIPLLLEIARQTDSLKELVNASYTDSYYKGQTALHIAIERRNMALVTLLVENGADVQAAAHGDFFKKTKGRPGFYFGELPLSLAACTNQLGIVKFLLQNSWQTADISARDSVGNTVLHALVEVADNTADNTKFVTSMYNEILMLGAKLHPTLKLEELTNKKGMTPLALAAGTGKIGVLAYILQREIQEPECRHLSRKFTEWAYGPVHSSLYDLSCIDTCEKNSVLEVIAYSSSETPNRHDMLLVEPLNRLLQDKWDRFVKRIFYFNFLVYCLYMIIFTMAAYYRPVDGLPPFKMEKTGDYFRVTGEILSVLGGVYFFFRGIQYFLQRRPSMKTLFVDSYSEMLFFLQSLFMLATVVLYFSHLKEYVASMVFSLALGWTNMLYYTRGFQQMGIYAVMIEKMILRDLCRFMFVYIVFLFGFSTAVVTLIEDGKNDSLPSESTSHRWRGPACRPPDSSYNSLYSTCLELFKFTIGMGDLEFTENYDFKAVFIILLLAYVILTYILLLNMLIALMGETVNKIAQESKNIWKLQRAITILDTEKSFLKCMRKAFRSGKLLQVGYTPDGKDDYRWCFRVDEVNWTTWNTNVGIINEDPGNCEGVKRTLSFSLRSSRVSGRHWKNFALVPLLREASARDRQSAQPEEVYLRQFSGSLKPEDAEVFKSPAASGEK
Test: Capsaicin Activation Assay (FLIPR intracellular Ca2+, recombinant HEK293 cells)
Type: cell-based
Details: recombinant HEK293 cells expressing hTRPV1; 50 nM capsaicin; read-out: human TRPV1 capsaicin IC50
Note to self: IC50 under 50 nM means true (1), ties and anything higher get false (0).

See these solved cases before continuing.
[[record]]
compound = "CC1(C)C[C@@H](NC(=O)Nc2ccc(F)c3c2C[C@@H](O)C3)c2cccc(F)c2O1 [Example 157]"
class = "false (0)"

[[record]]
compound = "O=C(Nc1cccc2c1C[C@H](O)C2)N[C@@H]1CC(CF)(CF)Oc2cc(C(F)(F)F)ccc21 [Example 7]"
class = "true (1)"

[[record]]
compound = "CN1CC[C@@H](NC(=O)Nc2cccc3c2C[C@@H](O)C3)c2ccc(C(F)(F)F)cc21 [Example 84]"
class = "false (0)"

[[record]]
compound = "CC(C)(C)c1cccc2c1OCC[C@H]2NC(=O)Nc1cccc2c1C[C@H](O)C2 [Example 51]"
class = "true (1)"

[[record]]
compound = "CC1(C)C[C@@H](NC(=O)Nc2cccc3c2C[C@@H](O)C3)c2cccc(OC(F)(F)F)c2O1 [Example 88]"
class = "true (1)"


## Task Consider CC1(C)C[C@@H](NC(=O)Nc2ccc(F)c3c2C[C@@H](O)C3)c2ccc(F)c(F)c2O1 [Example 171] . Does its IC50 lie strictly below 50 nM?
## Result false (0)

## Task Consider CC1(C)C[C@@H](NC(=O)Nc2ccc(F)c3c2C[C@H](O)C3)c2cccc(C(F)(F)F)c2O1 [Example 135] . Does its IC50 lie strictly below 50 nM?
## Result true (1)

## Task Consider CCC1(CC)C[C@@H](NC(=O)Nc2cccc3c2C[C@H](O)C3)c2cc(F)ccc2O1 [Example 58] . Does its IC50 lie strictly below 50 nM?
## Result true (1)
